biological target: HLA-A*80:01; test: IEDB peptide-MHC binding, purified MHC/competitive/fluorescence; filed as Kd, often an IC50 or EC50 that approximates it; bounds were set here for any values at or beyond the usual limits of such assays; conditions: source organism: Homo sapiens
pKd: −log10 of the molar value.
Assay endpoint: pKd

>  <Seq string>
YYSNKAYQY

>  <Recorded measurement>
6.43

$$$$

---

molecular target: HLA-B*27:03; assay: IEDB peptide-MHC binding, purified MHC/competitive/fluorescence; filed as Kd, often an IC50 or EC50 that approximates it; bounds were set here for any values at or beyond the usual limits of such assays; settings: source organism: Salmonella enterica subsp. enterica serovar Typhimurium str. LT2

>  <Seq string>
ILNSDDEQA

>  <Kd>
≥ 20 µM

$$$$
